Kindly state protein stability index for each of the entries shown.
B1: GNAI1 (parent)
chain: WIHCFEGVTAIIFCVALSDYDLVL

variants of: B1; experiment: protein stability index of a GFP-peptide fusion (GPS, HEK-293T) (PSI 1-6); higher = more stable; conditions: c terminus: a fixed tail appended;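 also: lentivirally expressed fusions sorted by FACS into six bins by GFP to DsRed ratio, PSI derived from sequencing read proportions per bin multiplied by bin number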

Incoming: Look up protein stability index for this variant: WIHCFEGVTWIIFCVALSDYDLVL [A10W]
Outgoing: 2.06

Incoming: Next record, please: WIHCFEGVTAIIFCVALSDYDLVH [L24H]
Outgoing: 3.37

Incoming: Next record, please: WIHCFMGVTAIIFCVALSDYDLVL [E6M]
Outgoing: 2.6

Incoming: Next record, please: WIHEFEGVTAIIFCVALSDYDLVL [C4E]
Outgoing: 2.83

Incoming: Next record, please: WIHCCEGVTAIIFCVALSDYDLVL [F5C]
Outgoing: 1.78

Incoming: Next record, please: WIHCFEGVTAIIFCVALSDYILVL [D21I]
Outgoing: 3.09

Incoming: Next record, please: WIHCFEGNTAIIFCVALSDYDLVL [V8N]
Outgoing: 2.3

Incoming: Next record, please: WIHCFEGVTAIIFCVAWSDYDLVL [L17W]
Outgoing: 3.09

Incoming: Next record, please: WIHCFEGVTAIIFCVALSDNDLVL [Y20N]
Outgoing: 3.6

Incoming: Next record, please: WIHCFEGVTAIIFCVALSDYDLVG [L24G]
Outgoing: 3.06

Incoming: Next record, please: WIHCFEGVTAIFFCVALSDYDLVL [I12F]
Outgoing: 3.41

Incoming: Next record, please: WIHCFEGVTAIIFCVALSDLDLVL [Y20L]
Outgoing: 3.28

Incoming: Next record, please: WIHCFEGVTAIHFCVALSDYDLVL [I12H]
Outgoing: 1.71

Incoming: Next record, please: WIHCFEGVTAIIFLVALSDYDLVL [C14L]
Outgoing: 1.8

Incoming: Next record, please: WIHCFEGVGAIIFCVALSDYDLVL [T9G]
Outgoing: 2.84

Incoming: Next record, please: WIHCFEGVTAIIFCVKLSDYDLVL [A16K]
Outgoing: 4.07

Incoming: Next record, please: WIHCFEGVTAIIFCVALSCYDLVL [D19C]
Outgoing: 3.67

Incoming: Next record, please: WIHCFEGVTAIIFIVALSDYDLVL [C14I]
Outgoing: 3.89

Incoming: Next record, please: WIHCFAGVTAIIFCVALSDYDLVL [E6A]
Outgoing: 2.75

Incoming: Next record, please: WIHCFEGVTAKIFCVALSDYDLVL [I11K]
Outgoing: 3.52

Incoming: Next record, please: WIVCFEGVTAIIFCVALSDYDLVL [H3V]
Outgoing: 2.98

Incoming: Next record, please: WIHCFEGVTAIIFCVALSKYDLVL [D19K]
Outgoing: 3.29
